target: Protein kinase C (PKC); experiment: Tested for inhibition of protein kinase C from rat brain
measured-attribute: log10(IC50) (log10 of the value in µM)
// units: µM (pre-log); metric: IC50; scale: log10

COc1ccc2c(c1)c1c3c(c4c5cc(OC)ccc5n(CCC#N)c4c1n2C)CNC3=O = -1.25
COc1ccc2c(c1)c1c3c(c4c5ccccc5n(CCC#N)c4c1n2C)C(=O)NC3=O = -1.80
CN(C)CCCn1c2ccccc2c2c3c(c4c5ccccc5[nH]c4c21)C(=O)NC3 = -0.64
COc1ccc2c(c1)c1c3c(c4c5ccccc5n(C)c4c1n2CCCC#N)C(=O)NC3=O = -2.30

Incoming: Quick check: log10(IC50) of `COc1ccc2[nH]c3c(c4c(c5c6cc(OC)ccc6n(CCCN(C)C)c35)CNC4=O)c2c1` ?
Outgoing: -0.26

Incoming: Now consider `COc1ccc2c(c1)c1c3c(c4c5cc(OC)ccc5n(CCC#N)c4c1n2C)C(=O)NC3=O` and answer again.
Outgoing: -2.22

* * *

target: Protein kinase C (PKC); experiment: Tested for inhibition of protein kinase C from rat brain
Simple rule here: IC50 less than 20 nM is criterion met, otherwise criterion not met.

CN(C)CC(O)Cn1c2ccccc2c2c3c(c4c5ccccc5n(C)c4c21)C(=O)NC3=O (stereo not given) = criterion not met
Cn1c2ccc(O)cc2c2c3c(c4c5cc(O)ccc5n(CCC#N)c4c21)CNC3=O = criterion met
CN(C)CCCn1c2ccccc2c2c3c(c4c5ccccc5n(C)c4c21)C(=O)NC3 = criterion not met
COc1ccc2c(c1)c1c3c(c4c5ccccc5n(C)c4c1n2CCC#N)C(=O)NC3=O = criterion met

Please find the next molecule below.
Incoming: Dear colleague, could you confirm whether IC50 of `Cn1c2ccccc2c2c3c(c4c5ccccc5n(CCC#N)c4c21)C(=O)NC3=O` falls below 20 nM? Thanks.
Outgoing: criterion not met

* * *

target: Protein kinase C (PKC); experiment: Tested for inhibition of protein kinase C from rat brain; details: read-out: IC50
measured-attribute: IC50 (nM)
Respond numerically; units are nM and should not be typed.

Incoming: Bench note: what IC50 did Cn1c2ccccc2c2c3c(c4c5ccccc5n(CCC#N)c4c21)CNC3=O [GO-6976] show?
Outgoing: 20

* * *

molecular target: Protein kinase C (PKC); assay: Tested for inhibition of protein kinase C from rat brain
With a cut-off of 30 nM, any IC50 strictly below it is called Fulfilled; any IC50 meeting it or above is called Not fulfilled.

COc1ccc2c(c1)c1c3c(c4c5ccccc5n(C)c4c1n2CC(O)CN(C)C)C(=O)NC3 (stereo not given) = Not fulfilled
COc1ccc2c(c1)c1c3c(c4c5ccccc5n(C)c4c1n2CC(O)CN(C)C)C(=O)NC3=O (stereo not given) = Fulfilled
CN(C)CCCn1c2ccc(O)cc2c2c3c(c4c5cc(O)ccc5[nH]c4c21)C(=O)NC3 = Fulfilled

Now for a further compound.
Incoming: Does the reported IC50 of the following compound sit strictly below 30 nM? `Cn1c2ccccc2c2c3c(c4c5ccccc5n(CCCN)c4c21)CNC3=O`
Outgoing: Not fulfilled
